Values compiled from ChEMBL document CHEMBL1137500.

System Name: Tyrosine-protein phosphatase YopH (Yersinia pseudotuberculosis serotype I (strain IP32953))
Method: Inhibition of Yersinia pseudotuberculosis YP3-pIB102 YopH at 20 uM
For each of the compounds below, state its inhibition.
Express it in %; write the number only.

### Prompt Name the recorded inhibition of the compound listed here: O=C(Nc1ccc(Cl)c(Cl)c1)c1cc(F)c(F)cc1NS(=O)(=O)c1cc(Cl)cc(Cl)c1O
### Response 82

### Prompt Name the recorded inhibition of the compound listed here: O=C(Nc1ccc2c(c1)OCO2)c1ccc(Cl)cc1NS(=O)(=O)c1ccc(Cl)c(Cl)c1
### Response 60

### Prompt Name the recorded inhibition of the compound listed here: O=C(Nc1ccc(Cl)c(Cl)c1)c1cc(F)c(F)cc1NS(=O)(=O)c1cccc([N+](=O)[O-])c1
### Response 67

### Prompt Name the recorded inhibition of the compound listed here: O=C(Nc1ccc(F)cc1)c1cc(F)c(F)cc1NS(=O)(=O)c1cccc(F)c1
### Response 54

### Prompt Name the recorded inhibition of the compound listed here: O=C(Nc1ccc(Cl)c(Cl)c1)c1cc(Cl)ccc1NS(=O)(=O)c1cccc2nsnc12
### Response 62

### Prompt Name the recorded inhibition of the compound listed here: O=C(Nc1ccc2c(c1)OCO2)c1ccc(Cl)cc1NS(=O)(=O)c1ccccc1
### Response 19

### Prompt Name the recorded inhibition of the compound listed here: COc1ccc(NC(=O)c2ccc(Cl)cc2NS(=O)(=O)c2ccc(Cl)c(Cl)c2)cc1
### Response 60

###

System: Yersinia pseudotuberculosis
Method: Effect on T3S in Yersinia pseudotuberculosis 3 pIB29 assessed as inhibition of light emission at 20 uM by luciferase reporter gene assay
For each of the molecules below, state its inhibition.
Express it in %; write the number only.

### Prompt Name the recorded inhibition of the molecule listed here: O=C(Nc1ccc(Cl)c(Cl)c1)c1ccccc1NS(=O)(=O)c1cccc2nsnc12
### Response 10

### Prompt Name the recorded inhibition of the molecule listed here: O=C(Nc1ccc(Cl)c(Cl)c1)c1cc(Cl)ccc1NS(=O)(=O)c1cccc2nsnc12
### Response 68

### Prompt Name the recorded inhibition of the molecule listed here: O=C(Nc1ccc2c(c1)OCO2)c1ccc(Cl)cc1NS(=O)(=O)c1ccccc1
### Response 7

### Prompt Name the recorded inhibition of the molecule listed here: O=C(Nc1ccccc1)c1cc(Cl)ccc1NS(=O)(=O)c1cccc2nsnc12
### Response 1

### Prompt Name the recorded inhibition of the molecule listed here: O=C(Nc1ccc(F)c(F)c1)c1cc(F)c(F)cc1NS(=O)(=O)c1cccc([N+](=O)[O-])c1
### Response 2

### Prompt Name the recorded inhibition of the molecule listed here: O=C(Nc1ccc(F)c(F)c1)c1ccc(Cl)cc1NS(=O)(=O)c1cc(Cl)cc(Cl)c1O
### Response 50

### Prompt Name the recorded inhibition of the molecule listed here: COc1ccc(NC(=O)c2ccc(Cl)cc2NS(=O)(=O)c2ccc(Cl)c(Cl)c2)cc1
### Response 67

###

System Name: Tyrosine-protein phosphatase YopH (Yersinia pseudotuberculosis serotype I (strain IP32953))
Method: Inhibition of Yersinia pseudotuberculosis YP3-pIB102 YopH at 10 uM
Measured Property: inhibition (%)
Express it in %; write the number only.

### Prompt Name the recorded inhibition of the molecule listed here: COc1ccc(NC(=O)c2ccc(Cl)cc2NS(=O)(=O)c2ccc(Cl)c(Cl)c2)cc1
### Response 35

### Prompt Name the recorded inhibition of the molecule listed here: O=C(Nc1ccc(Cl)c(Cl)c1)c1cc(F)c(F)cc1NS(=O)(=O)c1cccc([N+](=O)[O-])c1
### Response 26

### Prompt Name the recorded inhibition of the molecule listed here: O=C(Nc1ccc(Cl)c(Cl)c1)c1cc(F)c(F)cc1NS(=O)(=O)c1cc(Cl)cc(Cl)c1O
### Response 57

### Prompt Name the recorded inhibition of the molecule listed here: O=C(Nc1ccc(F)cc1)c1cc(F)c(F)cc1NS(=O)(=O)c1cccc(F)c1
### Response 27

### Prompt Name the recorded inhibition of the molecule listed here: O=C(Nc1ccc(Cl)c(Cl)c1)c1cc(Cl)ccc1NS(=O)(=O)c1cccc2nsnc12
### Response 19

### Prompt Name the recorded inhibition of the molecule listed here: O=C(Nc1ccc2c(c1)OCO2)c1ccc(Cl)cc1NS(=O)(=O)c1ccc(Cl)c(Cl)c1
### Response 33

### Prompt Name the recorded inhibition of the molecule listed here: O=C(Nc1ccc2c(c1)OCO2)c1ccc(Cl)cc1NS(=O)(=O)c1ccccc1
### Response 14
